Values compiled from the supplement of paper PMC4862054.

I'd appreciate it if you could supply normalised viability values for the items below.
- Test system: HCC1937
- PROTOCOL TEXT: normalised viability (% of control), CellTiter-Blue; higher = more viable cells (100 = DMSO, 0 = benzethonium chloride kill control)
- EXPERIMENTAL CONTEXT: 1 nM; incubation time: 72 h
Numbers only, in %.

Field: example entries. Status: answers known.
Look up and report measured normalised viability (HCC1937) for the following compound: C=CC(=O)Nc1cc2c(Nc3ccc(F)c(Cl)c3)ncnc2cc1OCCCN1CCOCC1
90.6

Look up and report measured normalised viability (HCC1937) for the following compound: CCc1cncnc1N1CCN(Cc2nc3ccc(C(F)(F)F)cc3[nH]2)CC1
86.6

Look up and report measured normalised viability (HCC1937) for the following compound: O=C(O)C1(C(=O)O)CCC1.[NH2-].[NH2-].[Pt+2]
80.9

Look up and report measured normalised viability (HCC1937) for the following compound: CC[C@H](Nc1ncnc2[nH]cnc12)c1nc2cccc(F)c2c(=O)n1-c1ccccc1
121

Now consider the entry below.
Look up and report measured normalised viability (HCC1937) for the following compound: CCN(CC)CCCC(C)Nc1c2ccc(Cl)cc2nc2ccc(OC)cc12 (stereo not given)
86

----------
- Test system: HCC1599
- PROTOCOL TEXT: normalised response (% of control), CellTiter-Glo; higher = more viable cells (100 = DMSO, 0 = benzethonium chloride kill control)
- EXPERIMENTAL CONTEXT: incubation time: 72 h
I'd appreciate it if you could supply normalised response values for the items below.
Numbers only, in %.

Field: example entries. Status: answers known.
State its normalised response: C=CC(=O)Nc1cc2c(Nc3ccc(F)c(Cl)c3)ncnc2cc1OCCCN1CCOCC1 [Canertinib] (10000 nM)
66.4

State its normalised response: CC[C@H](C)C(=O)O[C@H]1C[C@H](O)C=C2C=C[C@H](C)[C@H](CC[C@@H](O)C[C@@H](O)CC(=O)O)[C@H]21 [Pravastatin] (10000 nM)
29.5

Now consider the entry below.
State its normalised response: Nc1nc2[nH]cc(CCc3ccc(C(=O)N[C@@H](CCC(=O)O)C(=O)O)cc3)c2c(=O)[nH]1 [Pemetrexed] (10000 nM)
75.9

----------
- Test system: HCC1599
- PROTOCOL TEXT: normalised response (% of control), CellTox Green; higher = less cell death (100 = DMSO, 0 = benzethonium chloride kill control)
- EXPERIMENTAL CONTEXT: incubation time: 72 h
MEASUREMENT LABEL: normalised response (%)
One number for each entry, in %.

Look up and report measured normalised response (HCC1599) for the following compound: COc1cc2nccc(Oc3ccc(NC(=O)Nc4cc(C)on4)c(Cl)c3)c2cc1OC [Tivozanib] (1000 nM)
104

Would you mind giving normalised response for every compound in the list below?
1. C=CC(=O)Nc1cc2c(Nc3ccc(F)c(Cl)c3)ncnc2cc1OCCCN1CCOCC1 [Canertinib] (1000 nM)
2. C[C@H]1C[C@@H]2[C@H]([C@@H](O)C[C@@]3(C)[C@H]2CC[C@]3(O)C(=O)CO)[C@@]2(C)C=CC(=O)C=C12 [Methylprednisolone] (10000 nM)
3. COc1cc([C@@H]2c3cc4c(cc3[C@@H](O[C@@H]3O[C@@H]5CO[C@@H](c6cccs6)O[C@H]5[C@H](O)[C@H]3O)[C@H]3COC(=O)[C@H]23)OCO4)cc(OC)c1O [Teniposide] (100 nM)
4. COc1cc2c(Oc3ccc4[nH]c(C)cc4c3F)ncnc2cc1OCCCN1CCCC1 [Cediranib] (10 nM)
5. CCCCC(=O)OCC(=O)[C@]1(O)Cc2c(O)c3c(c(O)c2[C@@H](O[C@H]2C[C@H](NC(=O)C(F)(F)F)[C@H](O)[C@H](C)O2)C1)C(=O)c1c(OC)cccc1C3=O [Valrubicin] (5000 nM)
6. O=C(/C=C/c1cccnc1)NCCCCC1CCN(C(=O)c2ccccc2)CC1 [Daporinad] (10 nM)
7. CC1=C(/C=C/C(C)=C/C=C/C(C)=C/C(=O)O)C(C)(C)CCC1 [Tretinoin] (100 nM)
8. Nc1nc2[nH]cc(CCc3ccc(C(=O)N[C@@H](CCC(=O)O)C(=O)O)cc3)c2c(=O)[nH]1 [Pemetrexed] (10000 nM)

[114, 86.3, 91.3, 113, 196, 101, 99.1, 91.5]

----------
- Test system: BT-549
- PROTOCOL TEXT: normalised response (% of control), CellTiter-Glo; higher = more viable cells (100 = DMSO, 0 = benzethonium chloride kill control)
- EXPERIMENTAL CONTEXT: incubation time: 72 h
MEASUREMENT LABEL: normalised response (%)
Answers are plain numbers, in %.

State its normalised response: CC1=C(/C=C/C(C)=C/C=C/C(C)=C/C(=O)O)C(C)(C)CCC1 [Tretinoin] (1 nM)
104

State its normalised response: CC(=O)Nc1cccc(-n2c(=O)n(C3CC3)c(=O)c3c(Nc4ccc(I)cc4F)n(C)c(=O)c(C)c32)c1 [Trametinib] (0.025 nM)
94.9

State its normalised response: O=C(O)C(=O)O.[NH-][C@@H]1CCCC[C@H]1[NH-].[Pt+2] [Oxaliplatin] (1 nM)
103

Would you mind giving normalised response for every compound in the list below?
1. CCCCC(=O)OCC(=O)[C@]1(O)Cc2c(O)c3c(c(O)c2[C@@H](O[C@H]2C[C@H](NC(=O)C(F)(F)F)[C@H](O)[C@H](C)O2)C1)C(=O)c1c(OC)cccc1C3=O [Valrubicin] (500 nM)
2. CC[C@H](Nc1ncnc2[nH]cnc12)c1nc2cccc(F)c2c(=O)n1-c1ccccc1 [GS-1101] (1000 nM)
3. CNC(=O)c1cc(Oc2ccc(NC(=O)Nc3cc(C(C)(C)C)nn3-c3ccc4ncccc4c3)c(F)c2)ccn1 [Rebastinib] (1 nM)

64.1
82.8
93.8

Would you mind giving normalised response for every compound in the list below?
1. C=CC(=O)N1CCC[C@@H](n2nc(-c3ccc(Oc4ccccc4)cc3)c3c(N)ncnc32)C1 [Ibrutinib] (100 nM)
2. Nc1ncn([C@H]2C[C@H](O)[C@@H](CO)O2)c(=O)n1 [Decitabine] (1 nM)

1: 111; 2: 90

Would you mind giving normalised response for every compound in the list below?
1. C=CCc1cccc(/C=N/NC(=O)CN2CCN(Cc3ccccc3)CC2)c1O [PAC-1] (10 nM)
2. Nc1nc2[nH]cc(CCc3ccc(C(=O)N[C@@H](CCC(=O)O)C(=O)O)cc3)c2c(=O)[nH]1 [Pemetrexed] (1 nM)
3. N#Cc1ccc(C(c2ccc(C#N)cc2)n2cncn2)cc1 [Letrozole] (10 nM)

1: 97.7; 2: 105; 3: 95.3

----------
- Tested on: MCF-10A
- PROTOCOL TEXT: drug sensitivity score (DSS), CellTox Green (DSS (AUC-based score)); higher = stronger drug effect (viability inhibition or cytotoxicity); extreme values may be limits of the assay
- EXPERIMENTAL CONTEXT: incubation time: 72 h
MEASUREMENT LABEL: drug sensitivity score
Give bare numbers.

Field: example entries. Status: answers known.
State its drug sensitivity score: C=CCc1cccc(/C=N/NC(=O)CN2CCN(Cc3ccccc3)CC2)c1O
0

State its drug sensitivity score: Nc1ccccc1NC(=O)c1ccc(CNC(=O)OCc2cccnc2)cc1
0

State its drug sensitivity score: COc1cc2c(NC3CCN(C(C)C)CC3)nc(C3CCCCC3)nc2cc1OCCCN1CCCC1
7.41

Now consider the entry below.
State its drug sensitivity score: Oc1ncc(N(CCCl)CCCl)c(O)n1
0

----------
I'd appreciate it if you could supply normalised response values for the items below.
- Tested on: CAL-51
- PROTOCOL TEXT: normalised response (% of control), CellTiter-Glo; higher = more viable cells (100 = DMSO, 0 = benzethonium chloride kill control)
- EXPERIMENTAL CONTEXT: incubation time: 72 h
One number for each entry, in %.

Field: example entries. Status: answers known.
State its normalised response: CC[C@H](Nc1ncnc2[nH]cnc12)c1nc2cccc(F)c2c(=O)n1-c1ccccc1 [GS-1101] (10 nM)
122

State its normalised response: O=C(/C=C/c1cccnc1)NCCCCC1CCN(C(=O)c2ccccc2)CC1 [Daporinad] (0.1 nM)
112

State its normalised response: C=CC(=O)N1CCC[C@@H](n2nc(-c3ccc(Oc4ccccc4)cc3)c3c(N)ncnc32)C1 [Ibrutinib] (1 nM)
102

State its normalised response: Nc1nc(F)nc2c1ncn2[C@@H]1O[C@H](CO)[C@@H](O)[C@@H]1O [Fludarabine] (1 nM)
93.1

State its normalised response: Cc1ccc(-c2cc(C(F)(F)F)nn2-c2ccc(S(N)(=O)=O)cc2)cc1 [Celecoxib] (1000 nM)
118

Would you mind giving normalised response for every molecule in the list below?
1. CNC(=O)c1cc(Oc2ccc(NC(=O)Nc3cc(C(C)(C)C)nn3-c3ccc4ncccc4c3)c(F)c2)ccn1 [Rebastinib] (0.1 nM)
2. COc1cc2nccc(Oc3ccc(NC(=O)Nc4cc(C)on4)c(Cl)c3)c2cc1OC [Tivozanib] (1 nM)
3. COc1cc2c(NC3CCN(C(C)C)CC3)nc(C3CCCCC3)nc2cc1OCCCN1CCCC1 [UNC0638] (1000 nM)

1. 122
2. 108
3. 71.4
